- Test system: HEPG2
- experimental.protocol: Euclidean distance of Cell Painting phenotypic profile (signed KS, 77 features) to DMSO centroid (dimensionless distance); 5 or 10 uM (library dependent); higher = stronger phenotypic change vs DMSO (phenoactivity)
- stated.conditions: 48 h
Euclidean distance values, listed per item
outcome.measure: Euclidean distance

molecule: CS(=O)(=O)c1ccc(-c2cnc(N)c(C(=O)Nc3ccccc3)n2)cc1
assay.result: 1.07

molecule: COc1ccc(C(=O)CC(=O)c2ccc(C(C)(C)C)cc2)cc1 [Avobenzone]
assay.result: 0.762

molecule: Cc1cn([C@H]2C[C@H](N=[N+]=[N-])[C@@H](CO)O2)c(=O)[nH]c1=O [Zidovudine]
assay.result: 1.54

molecule: O=C(O)Cc1ccccc1Nc1c(Cl)cccc1Cl [Diclofenac Sodium]
assay.result: 0.995

molecule: COc1cc2ncnc(Oc3cccc(NC(=O)Nc4cc(C(C)(C)C(F)(F)F)on4)c3)c2cc1OC
assay.result: 0.923

###

- Test system: FB
- experimental.protocol: Euclidean distance of Cell Painting phenotypic profile (signed KS, 77 features) to DMSO centroid (dimensionless distance); 5 or 10 uM (library dependent); higher = stronger phenotypic change vs DMSO (phenoactivity)
- stated.conditions: 48 h

compound: Cc1cc(OCc2nnc(SC3CCCC3)n2-c2cccnc2)ccc1-c1ccc(S(C)(=O)=O)cc1
Euclidean distance: 2.69
--
compound: Cn1c(=O)c2c(ncn2CC(O)CO)n(C)c1=O (centres undefined) [Dyphylline]
Euclidean distance: 1.07
--
compound: CC(C)(O)CNc1nc(Nc2ccnc(C(F)(F)F)c2)nc(-c2cccc(C(F)(F)F)n2)n1 [Enasidenib (AG-221)]
Euclidean distance: 1.4
--
compound: CCCCC(C)(O)C/C=C/[C@H]1[C@H](O)CC(=O)[C@@H]1CCCCCCC(=O)OC (mixture of isomers) [Misoprostol]
Euclidean distance: 1.07

###

Below is a list of entries, each paired with its recorded Euclidean distance value.
- Tested on: 786-O
- experimental.protocol: Euclidean distance of Cell Painting phenotypic profile (signed KS, 77 features) to DMSO centroid (dimensionless distance); 5 or 10 uM (library dependent); higher = stronger phenotypic change vs DMSO (phenoactivity)
- stated.conditions: 48 h
Counter-ions that a name gives are not always drawn.
outcome.measure: Euclidean distance

compound: CC1(C)C[C@@H]1C(=O)N/C(=C\CCCCSC[C@H](N)C(=O)O)C(=O)O
system.name: 786-O
assay.result: 0.899
--
compound: CC[C@@H]1/C=C(\C)C[C@H](C)C[C@H](OC)[C@H]2O[C@@](O)(C(=O)C(=O)N3CCCC[C@H]3C(=O)O[C@H](/C(C)=C/[C@@H]3CC[C@H](Cl)[C@H](OC)C3)[C@H](C)[C@@H](O)CC1=O)[C@H](C)C[C@@H]2OC
system.name: 786-O
assay.result: 1.47
--
compound: Cc1nnc(C(=O)NC(C)(C)c2nc(C(=O)NCc3ccc(F)cc3)c(O)c(=O)n2C)o1
system.name: 786-O
assay.result: 1.17
--
compound: CC1(C)S[C@@H]2[C@H](NC(=O)COc3ccccc3)C(=O)N2[C@H]1C(=O)O [Penicillin V potassium salt]
system.name: 786-O
assay.result: 1.25
--
compound: O=c1c(-c2ccc(O)cc2)coc2cc(O)cc(O)c12
system.name: 786-O
assay.result: 1.75
--
compound: CN(CCOc1ccc(CC2SC(=O)NC2=O)cc1)c1ccccn1 (configuration not stated) [Rosiglitazone HCl]
system.name: 786-O
assay.result: 1.13
--
compound: CN(C(=O)c1ccc(F)cc1C(F)(F)F)C1CCN(c2nnc(-c3ccnn3C)c3ccccc23)CC1
system.name: 786-O
assay.result: 1.45

###

- Test system: A549
- experimental.protocol: Euclidean distance of Cell Painting phenotypic profile (signed KS, 77 features) to DMSO centroid (dimensionless distance); 5 or 10 uM (library dependent); higher = stronger phenotypic change vs DMSO (phenoactivity)
- stated.conditions: 48 h
Structures can show the parent of a compound that is named as a salt.

compound: O=C1NC(=O)/C(=C/c2cccc(C(F)(F)F)c2)S1
Euclidean distance: 1.41
--
compound: Clc1ccccc1C(c1ccccc1)(c1ccccc1)n1ccnc1 [Clotrimazole]
Euclidean distance: 1.31
--
compound: CC(C)c1c(C(=O)Nc2ccccc2)c(-c2ccccc2)c(-c2ccc(F)cc2)n1CC[C@@H](O)C[C@@H](O)CC(=O)O [Atorvastatin Calcium]
Euclidean distance: 1.33
--
compound: NC(=O)c1ncn([C@@H]2O[C@H](CO)[C@@H](O)[C@H]2O)c1O [Mizoribine]
Euclidean distance: 0.927
--
compound: Cc1cc(O)c2c(c1)C(=O)c1cccc(O)c1C2=O [Chrysophanic Acid]
Euclidean distance: 0.646
--
compound: CS(=O)(=O)c1ccc(Oc2cc(F)cc(C#N)c2)c2c1[C@H](O)C(F)(F)C2
Euclidean distance: 1.02
--
compound: CC(=O)[O-].[K+] [Potassium acetate]
Euclidean distance: 0.754
--
compound: COc1ccc(NS(=O)(=O)c2sc3ccc(Cl)cc3c2C)cc1N1CCNCC1
Euclidean distance: 1.39
--
compound: Nc1nc(N)c2nc(-c3cccc(O)c3)cnc2n1
Euclidean distance: 1.47
--
compound: CS(=O)(=O)c1ccc(C(=O)Nc2ccc(Cl)c(-c3ccccn3)c2)c(Cl)c1 [Vismodegib (GDC-0449)]
Euclidean distance: 1.01
--
compound: Cc1ncc([N+](=O)[O-])n1CCOC(=O)c1ccccc1 [Metronidazole Benzoate]
Euclidean distance: 1.41
--
compound: CO[C@@]1(NC(=O)CSC[C@@H](N)C(=O)O)C(=O)N2C(C(=O)O)=C(CSc3nnnn3C)CS[C@@H]21 [Cefminox Sodium]
Euclidean distance: 0.521
--
compound: C[C@]12CC[C@@H]3c4ccc(O)cc4CC[C@H]3[C@@H]1CCC2=O [Estrone]
Euclidean distance: 0.907
--
compound: O=C(O)CCNC(=O)c1ccccc1 [Betamipron]
Euclidean distance: 1.17
--
compound: CCN(CC)CC(=O)Nc1c(C)cccc1C [Lidocaine]
Euclidean distance: 0.785
--
compound: CCn1cc(C(=O)O)c(=O)c2cc(F)c(N3CCN(C)CC3)cc21 [Pefloxacin Mesylate]
Euclidean distance: 0.826
--
compound: CC(C)c1ccc(NC(=O)Cn2cnc3c2c(=O)n(C)c(=O)n3C)cc1
Euclidean distance: 1.06
--
compound: COc1cc(OC)c(C(=O)CCCN2CCCC2)c(OC)c1 [Buflomedil HCl]
Euclidean distance: 1.05
--
compound: c1ccc(C2CN3CCSC3=N2)cc1 (centres undefined) [Tetramisole HCl]
Euclidean distance: 0.708

###

Entries and their Euclidean distance values follow.
- Tested on: OVCAR4
- experimental.protocol: Euclidean distance of Cell Painting phenotypic profile (signed KS, 77 features) to DMSO centroid (dimensionless distance); 5 or 10 uM (library dependent); higher = stronger phenotypic change vs DMSO (phenoactivity)
- stated.conditions: 48 h
Where a name gives a salt, the structure may show the parent alone.

compound: Cc1nccn1CC1CCc2c(c3ccccc3n2C)C1=O (centres undefined) [Ondansetron HCl]
Euclidean distance: 0.943
--
compound: CC(C)CCCC(C)N (centres undefined) [Octodrine (2-Amino-6-methylheptan)]
Euclidean distance: 1.4
--
compound: O=S(=O)(c1ccccc1)N(CC(F)(F)F)c1ccc(C(O)(C(F)(F)F)C(F)(F)F)cc1
Euclidean distance: 1.43
--
compound: CN(C)CCCN1c2ccccc2Sc2ccc(C(F)(F)F)cc21 [Triflupromazine hydrochloride]
Euclidean distance: 1.47
--
compound: O=C(Nc1cccnn1)N1CCC(=Cc2cccc(Oc3ccc(C(F)(F)F)cn3)c2)CC1
Euclidean distance: 1.21
--
compound: Cc1ccc(/C=C2/C(=O)C3(C)CCC2C3(C)C)cc1 (centres undefined) [4-Methylbenzylidene camphor]
Euclidean distance: 1.22
--
compound: OC1CN(CCCOCCc2ccc3sccc3c2)C1 [Edonerpic maleate]
Euclidean distance: 0.97
--
compound: CC(=O)Nc1nc2c(Oc3cc(-c4ccc(C(F)(F)F)cc4)ncn3)cccc2s1
Euclidean distance: 0.981
--
compound: Cc1nc(Nc2ccc(F)cc2)nc(N2CCc3ccccc3C2C)c1C (centres undefined) [Revaprazan Hydrochloride]
Euclidean distance: 1.13

###

- System: 786-O
- experimental.protocol: Euclidean distance of Cell Painting phenotypic profile (signed KS, 77 features) to DMSO centroid (dimensionless distance); 5 or 10 uM (library dependent); higher = stronger phenotypic change vs DMSO (phenoactivity)
- stated.conditions: 48 h
outcome.measure: Euclidean distance

compound: C[C@@H](N)c1ccc(C(=O)Nc2ccnc3[nH]ccc23)cc1
assay.result: 1.87
//
compound: CCCSc1nc(N[C@@H]2C[C@H]2c2ccc(F)c(F)c2)c2nnn([C@@H]3C[C@H](OCCO)[C@@H](O)[C@H]3O)c2n1
assay.result: 0.66
//
compound: COCC(=O)NC/C=C/c1ccc2ncnc(Nc3ccc(Oc4ccc(C)nc4)c(C)c3)c2c1
assay.result: 0.785
//
compound: c1cncc(CN2CCC(n3ncc4c(N5CCOCC5)nc(-c5ccc6[nH]ccc6c5)nc43)CC2)c1
assay.result: 4.57
//
compound: CCOCCn1c(C2CCN(CCc3ccc(C(C)(C)C(=O)O)cc3)CC2)nc2ccccc21
assay.result: 1.25
//
compound: CO[C@@]1(NC(=O)C(C(=O)O)c2ccc(O)cc2)C(=O)N2C(C(=O)O)=C(CSc3nnnn3C)CO[C@@H]21 (some centres undefined) [Latamoxef sodium]
assay.result: 1.53
//
compound: C[C@H](NC(=O)Cc1cc(F)cc(F)c1)C(=O)N[C@H](C(=O)OC(C)(C)C)c1ccccc1
assay.result: 1.92
//
compound: COc1ccc(CCC(=O)Nc2nc3ccc(Cl)cc3s2)cc1OC
assay.result: 1.29
//
compound: CC(C)(Oc1ccc(C2CC2(Cl)Cl)cc1)C(=O)O (centres undefined) [Ciprofibrate]
assay.result: 1.02
